- Measured target: UniProt:P41595
- Experiment notes: Agonist activity at human 5HT2B receptor expressed in HEK293 cells at 10 uM assessed as calcium flux by FLIPR assay relative to serotonin
- Format: functional, cell-based
Assay metric: Emax (%)
Supply the numeric figure in %, leaving out any unit text.

NC[C@H]1C[C@@H]1c1cccc(F)c1 (relative stereo) ... 87
Cc1cccc([C@H]2C[C@@H]2CN)c1C (relative stereo) ... 90
NC[C@H]1C[C@@H]1c1cccc(C(F)(F)F)c1 (relative stereo) ... 78
NC[C@H]1C[C@@H]1c1ccc(F)c(F)c1 (relative stereo) ... 96
CN[C@H]1C[C@@H]1c1ccccc1 (racemic) ... 6
c1ccc(CNC[C@H]2C[C@@H]2c2ccccc2)cc1 (racemic) ... 10

Inquiry: Consider the molecule shown here: Cc1cccc([C@H]2C[C@@H]2CN)c1.Cl (relative stereo) What is its recorded Emax?
Reply text: 93

Inquiry: Field entry: NC[C@H]1C[C@@H]1c1ccc(Br)cc1 (relative stereo)
Reply text: 51

Inquiry: Quick one: c1ccc(CN[C@H]2C[C@@H]2c2ccccc2)cc1 (racemic)
Reply text: -1

Inquiry: Repeat for the following molecule: COc1ccccc1[C@H]1C[C@@H]1CN (relative stereo)
Reply text: 83

Inquiry: Next molecule up: NC[C@H]1C[C@@H]1c1ccccc1O (relative stereo)
Reply text: 74

Inquiry: Lookup NC[C@H]1C[C@@H]1c1cccc(F)c1F (relative stereo)
Reply text: 93

Inquiry: Please do the same for NC[C@H]1C[C@@H]1c1cccc(C#CCCCCO)c1 (relative stereo) as well.
Reply text: 17

* * *

- Measured target: Serotonin 2 receptors; 5-HT2a & 5-HT2c (Homo sapiens) (UniProt P28223+P28335)
- Sequence (P28223 whole entry, looked up): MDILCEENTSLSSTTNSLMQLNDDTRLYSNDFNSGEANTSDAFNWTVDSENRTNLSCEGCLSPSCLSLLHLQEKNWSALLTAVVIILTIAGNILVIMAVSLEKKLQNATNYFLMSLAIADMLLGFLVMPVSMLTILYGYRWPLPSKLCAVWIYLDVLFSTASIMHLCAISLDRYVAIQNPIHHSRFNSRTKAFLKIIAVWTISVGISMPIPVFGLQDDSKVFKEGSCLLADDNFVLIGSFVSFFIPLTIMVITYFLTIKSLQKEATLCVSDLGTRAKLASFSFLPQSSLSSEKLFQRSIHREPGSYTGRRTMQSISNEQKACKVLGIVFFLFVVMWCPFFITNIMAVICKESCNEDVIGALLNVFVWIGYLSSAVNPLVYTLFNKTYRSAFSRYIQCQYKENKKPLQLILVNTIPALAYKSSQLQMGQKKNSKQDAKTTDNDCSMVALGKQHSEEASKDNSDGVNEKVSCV
- Sequence (P28335 whole entry, looked up): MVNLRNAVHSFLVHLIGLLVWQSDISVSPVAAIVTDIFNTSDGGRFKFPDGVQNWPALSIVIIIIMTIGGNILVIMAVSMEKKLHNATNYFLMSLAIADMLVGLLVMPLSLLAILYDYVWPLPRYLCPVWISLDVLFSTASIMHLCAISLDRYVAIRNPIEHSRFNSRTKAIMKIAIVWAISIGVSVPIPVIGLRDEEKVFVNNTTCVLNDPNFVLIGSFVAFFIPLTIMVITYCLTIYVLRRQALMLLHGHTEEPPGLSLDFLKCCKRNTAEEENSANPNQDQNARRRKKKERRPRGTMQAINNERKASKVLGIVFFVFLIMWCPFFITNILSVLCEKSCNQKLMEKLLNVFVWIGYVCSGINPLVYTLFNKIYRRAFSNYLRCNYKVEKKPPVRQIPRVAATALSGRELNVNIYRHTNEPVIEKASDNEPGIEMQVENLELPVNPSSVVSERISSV
- Experiment notes: Selectivity ratio of EC50 for human 5HT2A receptor to EC50 for human 5HT2C receptor
Please note: class 1 applies when Ratio EC50 is 50 or greater, and class 0 applies otherwise.

Please review the entries below; each comes with its answer.
NC[C@H]1C[C@@H]1c1ccc(F)cc1Cl (relative stereo) ... class 0
NC[C@H]1C[C@@H]1c1ccccc1F (relative stereo) ... class 0
NC[C@@H]1C[C@H]1c1ccccc1Br (relative stereo) ... class 1
NC[C@H]1C[C@@H]1c1cccc(Cl)c1Cl (relative stereo) ... class 0
NC[C@H]1C[C@@H]1c1cccc(Cl)c1 (relative stereo) ... class 1

Inquiry: Reported Ratio EC50 reaches at least 50 for NC[C@H]1C[C@@H]1c1ccc(Cl)cc1Cl (relative stereo) ?
Reply text: class 0

* * *

- Measured target: 5-hydroxytryptamine receptor 2C (Homo sapiens, UniProt P28335)
- Experiment notes: Agonist activity at human 5HT2C receptor expressed in HEK293 cells assessed as calcium flux by FLIPR assay
pEC50: −log10 of the molar value.
Assay metric: pEC50

Solved cases below.
NC[C@H]1C[C@@H]1c1ccccc1NC(=O)Nc1ccc(Cl)cc1 (relative stereo) ... < 6.00
N#Cc1ccc(-c2cccc([C@H]3C[C@@H]3CN)c2)cc1 (relative stereo) ... < 6.00

Inquiry: Tell me the measured pEC50 of NC[C@H]1C[C@@H]1c1ccc(-c2ccc(F)cc2)cc1 (relative stereo) , please.
Reply text: < 6.00

Inquiry: Moving on to CC(C)(O)C#Cc1cccc([C@H]2C[C@@H]2CN)c1 (relative stereo)
Reply text: < 5.30

* * *

- Measured target: 5-hydroxytryptamine receptor 2B (Homo sapiens, UniProt P41595)
- Sequence (P41595 whole entry): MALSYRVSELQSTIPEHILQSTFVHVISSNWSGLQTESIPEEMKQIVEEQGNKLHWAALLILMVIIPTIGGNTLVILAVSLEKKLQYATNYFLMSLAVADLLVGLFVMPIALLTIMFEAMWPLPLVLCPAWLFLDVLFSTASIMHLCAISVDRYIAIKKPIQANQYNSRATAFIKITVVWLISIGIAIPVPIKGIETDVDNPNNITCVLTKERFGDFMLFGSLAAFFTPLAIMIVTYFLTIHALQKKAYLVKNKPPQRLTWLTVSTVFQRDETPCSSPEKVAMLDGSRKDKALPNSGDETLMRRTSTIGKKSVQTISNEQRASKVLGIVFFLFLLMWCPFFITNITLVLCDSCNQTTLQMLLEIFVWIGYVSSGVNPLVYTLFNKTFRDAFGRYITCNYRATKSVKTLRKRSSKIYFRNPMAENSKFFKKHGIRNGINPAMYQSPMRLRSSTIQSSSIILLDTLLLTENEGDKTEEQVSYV
- Experiment notes: Agonist activity at human 5HT2B receptor expressed in HEK293 cells at 10 uM assessed as calcium flux by FLIPR assay relative to serotonin
- Type: functional, cell-based
Assay metric: Emax (%)
The reply should contain only the number, in %.

These solved cases illustrate the format of a correct answer.
NC[C@H]1C[C@@H]1c1cccc(Cl)c1 (relative stereo) ... 78
NC[C@H]1C[C@@H]1c1ccccc1Cl (relative stereo) ... 82

As a next step, examine the compound that follows.
Inquiry: Given the compound NC[C@H]1C[C@@H]1c1ccc(Cl)cc1 (relative stereo) , what is its reported Emax?
Reply text: 80

* * *

- Measured target: Serotonin 2 receptors; 5-HT2a & 5-HT2c (Homo sapiens) (UniProt P28223+P28335)
- Experiment notes: Selectivity ratio of EC50 for human 5HT2A receptor to EC50 for human 5HT2C receptor
Class Fulfilled: Ratio EC50 at least 70. Class Not fulfilled: Ratio EC50 below 70.

Completed entries (count: 3):
NC[C@H]1C[C@@H]1c1cccc(C(F)(F)F)c1 (relative stereo) ... Not fulfilled
NC[C@H]1C[C@@H]1c1ccccc1 ... Fulfilled
NC[C@H]1C[C@@H]1c1ccccc1Cl (relative stereo) ... Not fulfilled

Inquiry: Given the entry NC[C@H]1C[C@@H]1c1ccc(F)cc1F (relative stereo) , answer whether its Ratio EC50 meets or surpasses 70.
Reply text: Not fulfilled

Inquiry: Now give it for NC[C@H]1C[C@@H]1c1ccc(F)cc1 (relative stereo) too.
Reply text: Not fulfilled

Inquiry: Also, Cc1ccc([C@H]2C[C@@H]2CN)cc1 (relative stereo) please.
Reply text: Not fulfilled

Inquiry: Then this molecule: NC[C@H]1C[C@@H]1c1ccccc1Br
Reply text: Fulfilled

Inquiry: Thanks! And NC[C@H]1C[C@@H]1c1ccc(Cl)cc1 (relative stereo) ?
Reply text: Not fulfilled

Inquiry: Now the same for NC[C@H]1C[C@@H]1c1cccc(Br)c1 (relative stereo)
Reply text: Fulfilled

Inquiry: Do the same for NC[C@@H]1C[C@H]1c1ccccc1Br please
Reply text: Fulfilled

* * *

- Measured target: Serotonin 2 receptors; 5-HT2a & 5-HT2c (Homo sapiens) (UniProt P28223+P28335)
- Experiment notes: Selectivity ratio of EC50 for human 5HT2A receptor to EC50 for human 5HT2C receptor
Listed next: entries and their corresponding Ratio EC50.
The answer should be a number; do not append a unit.

Below are worked cases with known answers.
Cc1ccc([C@H]2C[C@@H]2CN)cc1C (relative stereo) ... 68
Cc1ccccc1[C@H]1C[C@@H]1CN (relative stereo) ... 71
Cc1cccc([C@H]2C[C@@H]2CN)c1C (relative stereo) ... 52
NC[C@@H]1C[C@H]1c1ccccc1 (relative stereo) ... 106
NC[C@H]1C[C@@H]1c1cccc(O)c1 (relative stereo) ... 75
NC[C@H]1C[C@@H]1c1cccc(F)c1 (relative stereo) ... 131

Inquiry: Record Cc1cc([C@H]2C[C@@H]2CN)ccc1F (relative stereo) : what is its Ratio EC50 with Serotonin 2 receptors; 5-HT2a & 5-HT2c (Homo sapiens) (UniProt P28223+P28335)?
Reply text: 39

* * *

- Measured target: Serotonin 2 receptors; 5-HT2a & 5-HT2c (Homo sapiens) (UniProt P28223+P28335)
- Experiment notes: Selectivity ratio of EC50 for human 5HT2A receptor to EC50 for human 5HT2C receptor
Quick reference: Ratio EC50 of the listed items.

Worked cases, Ratio EC50 given:
NC[C@H]1C[C@@H]1c1ccccc1C#CCCCCO (relative stereo) ... > 43
NC[C@H]1C[C@@H]1c1c(F)cccc1F (relative stereo) ... > 11
NC[C@H]1C[C@@H]1c1ccc(Br)cc1 (relative stereo) ... > 7

Inquiry: State the recorded Ratio EC50 for this entry: NC[C@H]1C[C@@H]1c1cccc(C#CCCCCO)c1 (relative stereo)
Reply text: > 30

# credit: ChEMBL document CHEMBL1153382
